# Assayed system: Retinoic acid receptor beta (Homo sapiens)
# Sequence (P10826 whole entry): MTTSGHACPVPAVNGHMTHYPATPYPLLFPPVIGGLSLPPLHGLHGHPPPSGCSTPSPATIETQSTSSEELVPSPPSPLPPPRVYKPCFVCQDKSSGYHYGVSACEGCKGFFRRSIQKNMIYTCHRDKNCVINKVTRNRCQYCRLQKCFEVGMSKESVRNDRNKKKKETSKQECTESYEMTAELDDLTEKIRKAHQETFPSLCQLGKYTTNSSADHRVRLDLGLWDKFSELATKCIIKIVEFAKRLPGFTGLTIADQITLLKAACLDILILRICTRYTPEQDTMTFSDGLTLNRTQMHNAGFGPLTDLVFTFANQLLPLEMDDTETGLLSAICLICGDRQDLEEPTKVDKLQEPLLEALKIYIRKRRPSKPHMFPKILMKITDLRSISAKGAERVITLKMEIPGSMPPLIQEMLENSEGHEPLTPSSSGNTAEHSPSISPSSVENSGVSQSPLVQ
Measured attribute: Ki
Answer format: number, then unit.

Any idea what Ki came out for CC1(C)CCC(C)(C)c2cc(C3COc4cc(C(=O)O)ccc4C3)ccc21 (stereo unspecified) on Retinoic acid receptor beta (Homo sapiens)?
90 nM

---

# Assayed system: Retinoic acid receptor gamma (Homo sapiens)
# Sequence (P13631 whole entry): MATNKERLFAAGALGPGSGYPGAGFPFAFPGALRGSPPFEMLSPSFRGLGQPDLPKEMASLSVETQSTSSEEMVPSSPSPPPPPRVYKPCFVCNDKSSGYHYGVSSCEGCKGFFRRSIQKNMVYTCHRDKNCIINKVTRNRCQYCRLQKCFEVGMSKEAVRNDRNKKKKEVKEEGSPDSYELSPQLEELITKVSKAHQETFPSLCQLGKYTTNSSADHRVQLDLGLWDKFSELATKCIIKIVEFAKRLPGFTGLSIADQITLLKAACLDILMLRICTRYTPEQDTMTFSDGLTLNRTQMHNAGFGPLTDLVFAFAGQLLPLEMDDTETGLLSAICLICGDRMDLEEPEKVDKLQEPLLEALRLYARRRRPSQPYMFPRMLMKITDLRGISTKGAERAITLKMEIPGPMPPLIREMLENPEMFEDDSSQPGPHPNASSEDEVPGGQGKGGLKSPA
Below, each entry is listed with its recorded Ki.
Number in nM, nothing else.

CC(C)(C)c1cc(C2=Cc3ccc(C(=O)O)cc3OC2)cc(C(C)(C)C)c1O: 531

For the next question, use this compound.
Please look up its Ki: O=C(O)c1ccc2c(c1)OCC(c1ccc(O)c(C34C[C@H]5C[C@@H](C3)C[C@@H](C4)C5)c1)=C2
148

---

Observed pKi, system Retinoic acid receptor alpha (Homo sapiens).
To interpret pKi, take it as minus log10 of a concentration measured in moles per litre.

O=C(O)c1ccc2c(c1)OCC(c1ccc(O)c(C34C[C@H]5C[C@@H](C3)C[C@@H](C4)C5)c1)=C2: 6.09

Please find the next compound below.
What pKi appears in the records for this compound with Retinoic acid receptor alpha (Homo sapiens)? COc1ccc(C2=Cc3ccc(C(=O)O)cc3OC2)cc1C12C[C@H]3C[C@@H](C1)C[C@@H](C2)C3
Sequence (P10276 whole entry): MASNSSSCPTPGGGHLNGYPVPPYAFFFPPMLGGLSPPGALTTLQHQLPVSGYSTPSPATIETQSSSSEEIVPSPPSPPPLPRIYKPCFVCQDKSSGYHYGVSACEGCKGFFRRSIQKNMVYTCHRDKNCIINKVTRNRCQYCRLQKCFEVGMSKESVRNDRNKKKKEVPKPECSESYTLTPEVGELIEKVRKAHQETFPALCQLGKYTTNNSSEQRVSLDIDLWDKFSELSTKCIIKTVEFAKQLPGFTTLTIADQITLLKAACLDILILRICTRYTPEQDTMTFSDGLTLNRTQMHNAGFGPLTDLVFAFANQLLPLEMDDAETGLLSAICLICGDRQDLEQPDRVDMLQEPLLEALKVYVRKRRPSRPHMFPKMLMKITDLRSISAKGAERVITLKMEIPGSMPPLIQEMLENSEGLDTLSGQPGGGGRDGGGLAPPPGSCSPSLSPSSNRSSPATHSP
6.12
